- Tested on: HL-60(TB) leukemia
- Protocol details: NCI tumour cell line growth inhibition, 48 h
Parameter TGI: see the listing below.

See these solved cases before continuing.
CCCCN=C(OC1C=CCCC1)SC (stereo not drawn) :: > 100 µM
C[P+](C)(CC(F)(F)F)c1ccccc1 :: > 100 µM

*Q* Recorded TGI for O=C(NNc1ccc([N+](=O)[O-])cc1)C1OC(CO)C(O)C1O (stereo not drawn) , please?
*A* > 100 µM

###

- Test system: SW-620 colon
- Protocol details: NCI tumour cell line growth inhibition, 48 h
Endpoint: TGI

Some compounds with known TGI results, for comparison:
O=C(O)CNS(=O)(=O)c1ccc(NC(=O)c2cccc([N+](=O)[O-])c2)cc1 :: > 100 µM
O=C(O)CCN1C(=O)/C(=C/C(Cl)=C/c2ccccc2)SC1=S :: 6.32 µM
Cc1ccc(C)c2sc3cc(=O)ccc-3nc12 :: > 100 µM
Cc1ccc2c3ccc4c(c3n(C)c2c1)C(=O)C=CC4=O :: 4.58 µM
C=C(Cl)C(=C)CCC(Cl)C(C)(C)Cl (configuration not stated) :: > 100 µM
CC(C)(C)OC(=O)N[C@@H](Cc1ccccc1)C(=O)N1CC[C@@H](C(=O)N2[C@H]3CC4CC[C@@]3(CS2(=O)=O)C4(C)C)N1 :: > 100 µM
NC(=O)Nc1n[nH]c(-c2ccccc2)n1 :: > 100 µM
NC(=S)N1N=C(c2ccc3c(c2)CCC3)CC1c1ccccc1 (configuration not stated) :: > 100 µM
CC(C)(CN1CCCCC1)C(=O)CC(SCCS(=O)(=O)O)c1ccc(Cl)c(Cl)c1 (configuration not stated) :: 4.61 µM
Cc1cc(C#Cc2ccccc2)ccc1-n1c(/C=C/c2ccc(O)cc2)nc2ccccc2c1=O :: > 100 µM

*Q* Request body: readout TGI, system SW-620 colon, query "NCCCN1CCN(CCCNc2ccc3ncn4c5ccccc5c(=O)c2c34)CC1" . Return the value.
*A* > 25 µM

*Q* And for "C=C1C(=O)O[C@H]2[C@@H](O)[C@H](C)CCC/C(C)=C/CC[C@@]3(C)O[C@@H]3C[C@@H]12" ?
*A* 39.9 µM

###

- System: KM12 colon
- Protocol details: NCI tumour cell line growth inhibition, 48 h; in the data active means GI50 below about 0.43 µM; inactive means the rest
API: response.call in active, inactive

CN1C=CN(Cc2ccc(-c3ccccn3)nc2)[CH-]1.CN1C=CN(Cc2ccc(-c3ccccn3)nc2)[CH-]1.[Au+3] :: inactive
O=c1c2c(=NCCCN3CCCC3)cc3c(=O)n(CCCN4CCCC4)c(=O)c4c(NCCCN5CCCC5)cc(c(O)n1CCCN1CCCC1)c2c4-3 :: inactive
Fc1cc(Nc2ccc3c(OCCCN4CCOCC4)cccc3n2)ccc1Cl :: inactive
CCn1cc(C2NC(=O)c3cc(F)ccc3N2)c2cccc(Cl)c21 (stereo unspecified) :: active
CC1=CC(=O)c2[nH]c3ccccc3c2C1=O :: inactive

--- query ---
*Q* Call for entry CCCCCCCCCC[C@@H](O)[C@H]1CC[C@@H]([C@H]2CC[C@H]([C@H](O)CCCCCCCCCC[C@@H]3CC(CC(C)=O)C(=O)O3)O2)O1 (stereo partly specified) :
*A* inactive

###

- Tested on: SK-OV-3 ovarian
- Protocol details: NCI tumour cell line growth inhibition, 48 h
Endpoint: GI50

Some compounds with known GI50 results, for comparison:
CCOc1ccc(N2C(N)=NC(N)=NC2(C)C)cc1 :: > 100 µM
CC1=CC(=O)c2[nH]c3ccccc3c2C1=O :: 21.1 µM
COCCOC(=O)CCn1cc(F)c(=O)[nH]c1=O :: 37.1 µg/mL
O=C(O)C(O)C(O)C1[O][Sb][O]C1CO (stereo not drawn) :: > 100 µM
COc1cc(C(=O)c2c(-c3ccccc3)oc3ccccc23)cc(OC)c1O :: 6.24 µM
Brc1ccc2[nH]cc(-c3nc(-c4c[nH]c5ccncc45)cs3)c2c1 :: 1.65 µM
COc1cc([N+](=O)[O-])c2ncccc2c1O :: 3.36 µM

Now consider a different compound.
*Q* Return reported GI50; argument: "O=C(Nc1ccc(-c2nc3ccc(NC(=O)c4ccc(Cl)cc4)cc3[nH]2)cc1)c1ccc(Cl)cc1"
*A* 11.8 µM

Every entry's value here was drawn from PubChem BioAssay (NCI).
